Molecular target: Nuclear receptor subfamily 1 group I member 2 (Homo sapiens) (UniProt O75469)
Assay: CYP3A4 induction through human pregnane X receptor (PXR) by small molecules, qHTS assay (AID 1346984); note: nearly all actives have a fitted effect of over 40% in size
Settings: DPX-2 HepG2 PXR, CYP3A4-luciferin luminescence, 24 h; series mostly up to 46.1 µM
Results filed as inconclusive are left out. Active and inactive are the calls of the source. Calls come from the whole dose curve; as a rule, active = well fitted activation curve with a large enough effect in the repeat runs; inconclusive = weak or mixed curves; inactive = no such curve, though single readings can be large or run the other way.
Write down one outcome, taken from active, inactive

compound=ClC(Cl)(Cl)Cl qualitative_label=inactive

### Prompt Query: recorded result category for ClC1=C(Cl)C2(Cl)C(CBr)CC1(Cl)C2(Cl)Cl (stereo not given) in this test
### Response inactive

### Prompt Just curious, what result did C=C1C[C@@H]2[C@H](CC[C@]3(C)C(=O)CC[C@@H]23)[C@@]2(C)C=CC(=O)C=C12 get here?
### Response inactive

---

Target: Cytochrome P450 3A4 (Homo sapiens) (UniProt P08684)
Sequence (P08684 whole entry, looked up): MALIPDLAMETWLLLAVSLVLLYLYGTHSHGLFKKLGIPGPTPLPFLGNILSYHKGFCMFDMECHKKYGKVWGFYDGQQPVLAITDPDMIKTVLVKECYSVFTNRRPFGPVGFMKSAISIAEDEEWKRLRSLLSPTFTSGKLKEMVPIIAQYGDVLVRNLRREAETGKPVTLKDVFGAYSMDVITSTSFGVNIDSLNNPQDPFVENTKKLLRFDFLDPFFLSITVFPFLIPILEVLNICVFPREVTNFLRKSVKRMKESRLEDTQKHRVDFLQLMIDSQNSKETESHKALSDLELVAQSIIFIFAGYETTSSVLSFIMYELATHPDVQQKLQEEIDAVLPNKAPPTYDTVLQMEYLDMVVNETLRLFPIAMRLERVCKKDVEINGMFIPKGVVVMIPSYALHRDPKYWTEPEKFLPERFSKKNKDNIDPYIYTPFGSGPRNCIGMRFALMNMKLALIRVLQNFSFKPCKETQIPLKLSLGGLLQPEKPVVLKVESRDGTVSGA
Experiment: Cytochrome P450 Family 3 Subfamily A Member 4 (CYP3A4) small molecule antagonists: luciferase reporter qHTS assay (AID 1671201); note: nearly all actives have a fitted effect of over 50% in size
Conditions: P450-Glo CYP3A4 enzyme, luciferin luminescence, 1 h; series mostly up to 115 µM
Records with an inconclusive call do not appear. The source made the active and inactive calls. Calls come from the whole dose curve; as a rule, active = well fitted inhibition curve with a large enough effect in the repeat runs; inconclusive = weak or mixed curves; inactive = no such curve, though single readings can be large or run the other way.
Select the correct class. Options are active, inactive and nothing else.

Before answering, review these 4 worked examples.
compound=O=C(Cl)OCc1ccccc1 test_target="Cytochrome P450 3A4 (Homo sapiens) (UniProt P08684)" qualitative_label=inactive
compound=COP(=O)(O)OC test_target="Cytochrome P450 3A4 (Homo sapiens) (UniProt P08684)" qualitative_label=inactive
compound=CNC(=O)O/N=C(/CSC)C(C)(C)C test_target="Cytochrome P450 3A4 (Homo sapiens) (UniProt P08684)" qualitative_label=inactive
compound=N=C(N)[Se] test_target="Cytochrome P450 3A4 (Homo sapiens) (UniProt P08684)" qualitative_label=inactive

Next:
### Prompt In this assay, the call recorded for CN=CNc1ccc(C)cc1C was what?
### Response inactive

---

Target: Acetylcholinesterase (Homo sapiens)
Assay: Acetylcholinesterase (AChE) small molecule antagonists: fluorescence cell-based qHTS assay (AID 1347398); note: nearly all actives have a fitted effect of over 50% in size
Conditions: SH-SY5Y cells; AChE activity; series mostly up to 115 µM
From the text: National Center for Advancing Translational Sciences [NCATS] Division of Preclinical Innovation [DPI] U.S. Environmental Protection Agency [EPA] National Institutes of Environmental Health Sciences [NIEHS] National Toxicology Program [NTP] […] A homogenous cell-based assay using Amplitetrade mark Fluorimetric Acetylcholinesterase Assay Kit *Green Fluorescence* (AAT Bioquest, Sunnyvale, CA) was used to evaluate the chemicals in the Tox21 10K library that inhibit AChE activity. […]
Results filed as inconclusive are left out. Active and inactive are the calls of the source. Calls follow the shape of the full dose curve.
One label from this list, please: yes (active), no (inactive)

compound=COC[C@@H](NC(C)=O)C(=O)NCc1ccccc1 qualitative_label=no
compound=CC(=NC#N)N(C)Cc1ccc(Cl)nc1 qualitative_label=no
compound=CCCCS(=O)(=O)Cl qualitative_label=no
compound="BrCC1CO1 (stereo unspecified)" qualitative_label=no
compound=O=C(Cl)c1ccccc1 qualitative_label=no
compound="C=CC1(C)OC(=O)N(c2cc(Cl)cc(Cl)c2)C1=O (stereo unspecified)" qualitative_label=no
compound=CN1COCN(Cc2cnc(Cl)s2)/C1=N\[N+](=O)[O-] qualitative_label=no
compound=COc1ccc(C=O)cc1O qualitative_label=no

### Prompt Dear all, I need the recorded test outcome for O=C1CCCCC1Cl (stereo unspecified) , thank you.
### Response no

### Prompt Entry CC(C)(N)Cc1ccccc1Cl : call = ?
### Response no

### Prompt // param item: COC(=O)[C@@H](N)CCCN/C(N)=N/[N+](=O)[O-] ; yields the recorded call
### Response no

### Prompt // outcome(item) with item = C#CCOC(=O)/C=C(C)/C=C/CC(C)CCCC(C)C (stereo unspecified)
### Response no

---

Assay: qHTS assay to identify small molecule antagonists of the constitutive androstane receptor (CAR) signaling pathway - cell viability counter screen (AID 1224837); note: nearly all actives have a fitted effect of over 45% in size
Details: HepG2-CYP2B6-hCAR viability, CellTiter-Fluor, 23 h, co-treated with 50 nM CITCO; series mostly up to 92.4 µM
Results filed as inconclusive are left out. Active and inactive are the calls of the source. Calls follow the shape of the dose curve; as a rule, active = well fitted cell-killing curve with a large enough effect in the repeat runs; inconclusive = weak or mixed curves, or effect the other way; inactive = flat fitted curve, though single readings scatter.
PROPERTY: activity change, negative = cytotoxicity

Worked examples follow.
compound=CCOC(=O)N(C)N=O measured_value=inactive
compound=O=C(O)c1c(Cl)ccc2cc(Cl)cnc12 measured_value=inactive
compound=O=C(Cl)/C=C/C(=O)Cl measured_value=inactive
compound=CCN[C@@H](C)Cc1ccccc1 measured_value=inactive
compound=O=C(Cl)C(Cl)(Cl)Cl measured_value=inactive
compound=CS(=O)(=O)Cl measured_value=inactive

// next entry
### Prompt What value of measured activity change, negative = cytotoxicity is listed for CCOc1cc(OP(=S)(OC)OC)nc(CC)n1 ?
### Response inactive

---

Assay: qHTS assay to identify aromatase inhibitors - cell viability counter screen (AID 743084);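 note: cells stimulated with testosterone during compound exposure; nearly all actives have a fitted effect of over 55% in size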
Conditions: MCF-7 aro ERE viability, CellTiter-Fluor, 24 h; series mostly up to 70.3 µM
Inconclusive results are not listed. Calls of active or inactive are those of the source. Calls come from the whole dose curve; as a rule, active = well fitted cell-killing curve with a large enough effect in the repeat runs; inconclusive = weak or mixed curves, or effect the other way; inactive = no such curve, though single readings can be large or run the other way.
Result category, one only: true (1) = active, false (0) = inactive

### Prompt Would you mind telling me which call this test gave CC(O)CCl (stereo unspecified) ?
### Response false (0)

### Prompt Would you mind telling me which call this test gave Cc1cc(OC(=O)N(C)C)nn1C(=O)N(C)C ?
### Response false (0)

### Prompt // return assay outcome for Clc1nc(Cl)nc(Nc2ccccc2Cl)n1
### Response false (0)

### Prompt Outcome? CCC(C)(C#N)N=NC(C)(C#N)CC (stereo unspecified)
### Response false (0)

### Prompt # fetch the recorded call for OCC(Cl)CCl (stereo unspecified) here
### Response false (0)

---

Experiment: qHTS assay for identifying genotoxic compounds that show differential cytotoxicity against isogenic chicken DT40 cell lines with known DNA damage response pathways - Rad54/Ku70 mutant cell line (AID 743015); note: nearly all actives have a fitted effect of over 60% in size
Settings: DT40 Rad54/Ku70 mutant viability, CellTiter-Glo, 40 h; series mostly up to 66.8 µM
Inconclusive results are not listed. The source made the active and inactive calls. Calls follow the shape of the dose curve; as a rule, active = well fitted cell-killing curve with a large enough effect in the repeat runs; inconclusive = weak or mixed curves; inactive = no such curve, though single readings can be large or run the other way.
Write down one outcome, taken from class 1 = active, class 0 = inactive

Some solved entries appear below for comparison.
compound=CC(C)(C)NC[C@H](O)c1ccc(O)cc1Cl qualitative_label="class 0"
compound=O=S1(=O)OCCO1 qualitative_label="class 0"
compound=ClCCCCCCCl qualitative_label="class 0"

### Prompt Hi, sorry to bother you, what did the test record for NC(=O)OCCCc1ccccc1 ?
### Response class 1

### Prompt What call does the record list for COc1cccc([C@@]2(O)CCCC[C@@H]2CN(C)C)c1 ?
### Response class 0

### Prompt Record lookup: outcome of this test for CCOC(=O)COc1ccc(Cl)cc1Cl ?
### Response class 0

### Prompt Which result was noted for this compound in the test: COc1ccc(CN2CCNCC2)c(OC)c1OC
### Response class 0

### Prompt Returns: the outcome recorded for Cc1ccc2cc(C)ccc2c1 in this assay.
### Response class 0

### Prompt Given CCC1(c2ccccc2)CCC(=O)NC1=O (configuration not stated) , state the outcome it received in this test.
### Response class 0

### Prompt Kindly provide the recorded test outcome for the following compound: CCCC(C)(COC(N)=O)COC(N)=O
### Response class 0

### Prompt Recorded test call requested for N=C(N)[Se]
### Response class 1

### Prompt Look up the recorded call for O=C(Cl)OCc1ccccc1 in this test.
### Response class 0

---

Target: Cytochrome P450 1A2 (Homo sapiens)
Experiment: Cytochrome P450 Family 1 Subfamily A Member 2 (CYP1A2) small molecule antagonists: luciferase reporter qHTS assay (AID 1671199); note: nearly all actives have a fitted effect of over 50% in size
Conditions: P450-Glo CYP1A2 enzyme, luciferin luminescence, 1 h; series mostly up to 115 µM
Description: National Center for Advancing Translational Sciences [NCATS] U.S. Environmental Protection Agency [EPA] National Institutes of Environmental Health Sciences [NIEHS] National Toxicology Program [NTP] U.S. Food and Drug Administration [FDA] Cytochrome P450 (CYP) enzymes are membrane-bound hemeproteins that play a key role in metabolism of drugs and xenobiotics. […] The luciferin products formed are detected with a luciferin detection reagent, and the amount of light produced is proportional to CYP activity. […]
Results filed as inconclusive are left out. Activity calls are given as the source filed them. Calls follow the shape of the dose curve; as a rule, active = well fitted inhibition curve with a large enough effect in the repeat runs; inconclusive = weak or mixed curves; inactive = no such curve, though single readings can be large or run the other way.
Select the matching outcome among 1 (yes) for active, 0 (no) for inactive

// below: answered molecules
molecule=O=C(CCl)NCO qualitative_label="0 (no)"
molecule="ClC1=C(Cl)C2(Cl)C(CBr)CC1(Cl)C2(Cl)Cl (stereo unspecified)" qualitative_label="0 (no)"
molecule=COC(=O)[C@@H](N)CCCN/C(N)=N/[N+](=O)[O-] qualitative_label="0 (no)"
molecule=CCOP(=S)(OCC)Oc1ccc(Cl)cc1Cl qualitative_label="1 (yes)"
molecule="CC(C)C(C)(N)C#N (stereo unspecified)" qualitative_label="0 (no)"

### Prompt What outcome does the record of this test show for O=C(Cl)C(Cl)(Cl)Cl ?
### Response 0 (no)
